test system: MDA-MB-468 breast; assay: NCI tumour cell line growth inhibition, 48 h; in the data active = GI50 below about 0.43 µM; inactive = the rest
Can you answer with just one of these options? active, inactive

Use the examples below as a reference point.
| compound | subject-of-test | classification |
| --- | --- | --- |
| COc1ccc(/C=C2\CCCC3=C2NC(C)=NC3c2ccc(OC)c(OC)c2)cc1OC (configuration not stated) | MDA-MB-468 breast | inactive |
| COc1cc(/C=C(/c2ccccc2)[N+](=O)[O-])c(OC)c2c1OCO2 | MDA-MB-468 breast | inactive |
| Cc1cc(N2CCCC2)nc(N(CCCNc2ccnc3cc(Cl)ccc23)Cc2ccc3c(c2)OCO3)n1 | MDA-MB-468 breast | inactive |
| C[C@H](CS(C)(=O)=O)Nc1ncc2cc(Oc3ccc(F)cc3F)c(=O)n(C)c2n1 | MDA-MB-468 breast | inactive |
| Cc1ccc2c(c1)ncn2-c1ncnc2c1CC(C)c1ccccc1N2C (configuration not stated) | MDA-MB-468 breast | active |
| NCc1ccc(-n2c(-c3nonc3N)nc3cnccc32)cc1 | MDA-MB-468 breast | inactive |

Now look at this one.
Prompt: Which outcome was entered for the compound CCN1C(=O)N(CC)C2C1NN=c1s/c(=C3\C(=O)N(C)c4ccccc43)c(=O)n12 (configuration not stated) in this test?
Response: active

* * *

system: MDA-MB-468 breast; experiment: NCI tumour cell line growth inhibition, 48 h
measured-parameter: TGI

Look over these answered cases.
| compound | TGI |
| --- | --- |
| NCc1ccc(-n2c(-c3nonc3N)nc3cnccc32)cc1 | 11.8 µM |
| CCN1C(=O)N(CC)C2C1NN=c1s/c(=C3\C(=O)N(C)c4ccccc43)c(=O)n12 (stereo not drawn) | 6.01 µM |
| Fc1ccc(Nc2nc(NCCNc3ccnc4cc(Cl)ccc34)nc(N3CCOCC3)n2)cc1 | 4.83 µM |
| O=c1oc2ccc(Cl)cc2c(=O)n1-c1ccc(I)cc1F | 0.87 µM |
| COc1ccc(/C=C2\CCCC3=C2NC(C)=NC3c2ccc(OC)c(OC)c2)cc1OC (stereo not drawn) | 8.18 µM |
| COc1cc(/C=C(/c2ccccc2)[N+](=O)[O-])c(OC)c2c1OCO2 | 2.73 µM |
| Oc1cc(Cl)ccc1Oc1ccc(Cl)cc1Cl | 7.24 µM |

Let us move to another entry and its TGI.
Prompt: Which measured TGI value corresponds to "Fc1ccc(Nc2nccc(-c3c(-c4ccc(C(F)(F)F)cc4)nn4ncccc34)n2)cc1F" ?
Response: > 25 µM
